Measured GI50, listed per entry for reference.
System: OVCAR-5
assay: NCI tumour cell line growth inhibition, 48 h
Calls of active or inactive are those of the source. Rule as the data show it: active = GI50 up to about 1.1 µM and inactive = higher.

[
  {
    "molecule": "S=P1(c2ccccc2)Nc2ccc(Cl)cc2N1 (configuration not stated)",
    "GI50": "> 100 µM (inactive)"
  },
  {
    "molecule": "CCOC(=O)c1cc2c([N+](=O)[O-])c(N)ccc2s1",
    "GI50": "> 100 µM (inactive)"
  },
  {
    "molecule": "COC(=O)CCC(C)[C@H]1CCC2C3C(C[C@H](OC(C)=O)[C@@]21C)[C@@]1(C)CCC2(C[C@H]1C[C@H]3OC(C)=O)OOC1(CCCCC1)OO2 (some centres not stated)",
    "GI50": "43.5 µM (inactive)"
  },
  {
    "molecule": "Clc1ccc(C[P+](c2ccccc2)(c2ccccc2)c2ccccc2)c(Cl)c1",
    "GI50": "2.37 µM (inactive)"
  },
  {
    "molecule": "COc1ccc(/C(CCl)=C(\\Nc2ccccc2)c2ccc(OC)c(OC)c2)cc1OC",
    "GI50": "> 100 µM (inactive)"
  },
  {
    "molecule": "CCOC(=O)c1cn2c(n1)sc1cc(F)ccc12",
    "GI50": "25.2 µM (inactive)"
  },
  {
    "molecule": "COc1ccccc1NC(=O)CC(=O)N1N=C(C)C(/N=N/c2ccc(S(N)(=O)=O)cc2)C1=O (configuration not stated)",
    "GI50": "> 100 µM (inactive)"
  },
  {
    "molecule": "Nc1ncc(CN2CCOCC2)c(-c2ccccc2O)n1",
    "GI50": "> 100 µM (inactive)"
  },
  {
    "molecule": "C/C(=C\\c1ccccc1)C(O)S(=O)(=O)O (configuration not stated)",
    "GI50": "> 100 µM (inactive)"
  },
  {
    "molecule": "CN(C)CCSc1cccc(-c2cc(-c3cccc(SCCN(C)C)c3)nc(SCCN(C)C)n2)c1",
    "GI50": "6.79 µM (inactive)"
  },
  {
    "molecule": "CCc1cccc(C(C)CC)c1/N=C(/NC(=O)c1ccccc1C(=O)N/C(=N/c1c(CC)cccc1C(C)CC)SC)SC (configuration not stated)",
    "GI50": "60.1 µM (inactive)"
  },
  {
    "molecule": "CCN(CCCl)c1cc(CN(C)C)cc(NC(=O)C23CCC(C(=O)Nc4cc(CN(C)C)cc(N(CC)CCCl)c4)(CC2)CC3)c1",
    "GI50": "1.5 µM (inactive)"
  },
  {
    "molecule": "CN(C)Cc1cc(C(=O)/C=C/c2c(Cl)cccc2Cl)cc(CN(C)C)c1O",
    "GI50": "18.2 µM (inactive)"
  },
  {
    "molecule": "CC(=O)OC1CCC2(C)C(CCC3C2CCC2(C)C(c4ccc(=O)oc4)C(OC(C)=O)CC32O)C1 (configuration not stated)",
    "GI50": "0.0397 µM (active)"
  },
  {
    "molecule": "CN(CCNC(=O)c1cn(C)c2c1ccc1cc(Cl)c(Cl)cc12)CCNC(=O)c1cn(C)c2c1ccc1cc(Cl)c(Cl)cc12",
    "GI50": "2.79 µM (inactive)"
  },
  {
    "molecule": "CC(C)=CCC/C(=C/CC/C(=C\\CCc1ccoc1)C(=O)O)C(=O)O",
    "GI50": "> 100 µM (inactive)"
  },
  {
    "molecule": "CCCC[P+](CCCC)(CCCC)C(C(=O)OC)C(C(=O)OC)=C1SC(C(=O)OC)=C(C(=O)OC)S1 (configuration not stated)",
    "GI50": "> 100 µM (inactive)"
  },
  {
    "molecule": "CN(C)CCONC(=O)C12CC3CC(CC(C3)C1)C2",
    "GI50": "> 100 µM (inactive)"
  },
  {
    "molecule": "S=c1nc2[nH]c3ccc(Br)cc3c2n[nH]1",
    "GI50": "> 100 µM (inactive)"
  },
  {
    "molecule": "O=C(CNc1ccccc1C(=O)O)Nn1cnc2ccc(S(=O)(=O)Nc3ccccc3C(=O)O)cc2c1=O",
    "GI50": "> 100 µM (inactive)"
  },
  {
    "molecule": "N#CC12CNCC1CN=N2 (configuration not stated)",
    "GI50": "> 100 µM (inactive)"
  },
  {
    "molecule": "CCOC(=O)NC(Nc1ncccn1)(C(=O)OCC)C(F)(F)F (configuration not stated)",
    "GI50": "> 100 µM (inactive)"
  }
]
